- protocol_description: total protein half-life in vivo (active degradation + dilution); higher = more stable protein
- test_context: wild type E. coli NCM3722; growth: C-lim chemostat; doubling time 3 h
measured_property: total protein half-life in vivo (h)

[[record]]
biosequence = "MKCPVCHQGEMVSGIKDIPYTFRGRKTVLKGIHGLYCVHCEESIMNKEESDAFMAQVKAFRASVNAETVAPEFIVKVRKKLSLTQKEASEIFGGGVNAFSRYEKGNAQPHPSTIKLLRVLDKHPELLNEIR"
measured_property = "total protein half-life in vivo"
result_unit = "h"
value_observed = 0.559

[[record]]
biosequence = "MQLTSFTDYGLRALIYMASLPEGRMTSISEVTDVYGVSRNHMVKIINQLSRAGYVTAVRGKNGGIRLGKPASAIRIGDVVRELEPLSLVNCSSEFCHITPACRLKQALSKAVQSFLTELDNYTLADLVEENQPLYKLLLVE [P0AF63]"
measured_property = "total protein half-life in vivo"
result_unit = "h"
value_observed = 2.93

[[record]]
biosequence = "MISDSKLLASAAWDAQSLNELKAKAGEDPAANIRPVARQVEGMFVQMMLKSMRDALPKDGLFSSEHTRLYTSMYDQQIAQQMTAGKGLGLAEMMVKQMTPEQPLPEESTPAAPMKFPLETVVRYQNQALSQLVQKAVPRNYDDSLPGDSKAFLAQLSLPAQLASQQSGVPHHLILAQAALESGWGQRQIRRENGEPSYNLFGVKASGNWKGPVTEITTTEYENGEAKKVKAKFRVYSSYLEALSDYVGLLTRNPRYAAVTTAASAEQGAQALQDAGYATDPHYARKLTNMIQQMKSISDKVSKTYSMNIDNLF"
measured_property = "total protein half-life in vivo"
result_unit = "h"
value_observed = 0.391

[[record]]
biosequence = "MRRLLSVAPVLLWLITPLAFAQLPGITSQPLPGGGQSWSLPVQTLVFITSLTFIPAILLMMTSFTRIIIVFGLLRNALGTPSAPPNQVLLGLALFLTFFIMSPVIDKIYVDAYQPFSEEKISMQEALEKGAQPLREFMLRQTREADLGLFARLANTGPLQGPEAVPMRILLPAYVTSELKTAFQIGFTIFIPFLIIDLVIASVLMALGMMMVPPATIALPFKLMLFVLVDGWQLLVGSLAQSFYS [P0AC05]"
measured_property = "total protein half-life in vivo"
result_unit = "h"
value_observed = 2.76

[[record]]
biosequence = "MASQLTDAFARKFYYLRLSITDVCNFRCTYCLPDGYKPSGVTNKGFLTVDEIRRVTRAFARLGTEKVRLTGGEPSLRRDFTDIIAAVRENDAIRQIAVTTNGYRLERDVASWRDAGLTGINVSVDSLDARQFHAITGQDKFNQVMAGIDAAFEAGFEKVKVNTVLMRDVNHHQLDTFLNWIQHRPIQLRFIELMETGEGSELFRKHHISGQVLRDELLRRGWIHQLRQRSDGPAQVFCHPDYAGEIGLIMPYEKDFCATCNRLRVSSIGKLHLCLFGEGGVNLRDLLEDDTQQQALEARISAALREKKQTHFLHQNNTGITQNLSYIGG"
measured_property = "total protein half-life in vivo"
result_unit = "h"
value_observed = 0.618

[[record]]
biosequence = "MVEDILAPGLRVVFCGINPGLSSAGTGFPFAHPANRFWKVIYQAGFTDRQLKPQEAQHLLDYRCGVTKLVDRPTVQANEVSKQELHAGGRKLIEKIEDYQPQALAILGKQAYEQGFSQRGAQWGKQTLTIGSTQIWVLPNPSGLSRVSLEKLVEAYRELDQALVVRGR [P0A9H1]"
measured_property = "total protein half-life in vivo"
result_unit = "h"
value_observed = 3.15

[[record]]
biosequence = "MKIRSLSRFVLASTMFASFTASAVPGLWQQGYGQGNAEYSVTDASGKMFTINCTGNPDQNGIYQHSVFLILAGDKTVSSHDDSTGITVVMDHKQYAIPSTLGWRNGDNAWFSFIMDIRKARQFDVYVNDQKVGSFNPDVRNAQKVLPTLADCTND"
measured_property = "total protein half-life in vivo"
result_unit = "h"
value_observed = 1.45

